Test system: genotype 1a (H77) wild-type transient HCV replicon in Huh-7-derived cells
Assay: Transient-transfected HCV replicon, genotype 1a wild type
Assay type: cell-based
Conditions: Hepatitis C virus; transient-transfected replicon genotype 1a wild type, 72 h; read-out: EC50 1A WT

>  <chemical_smiles>
CC(C)(C)[C@@H]1NC(=O)O[C@@H]2C[C@@H]3C[C@@H]3[C@H]2CCCCCn2c(nc3ccccc3c2=O)O[C@@H]2C[C@@H](C(=O)N[C@]3(C(=O)NS(=O)(=O)C4(C)CC4)C[C@H]3C(F)F)N(C2)C1=O

>  <EC50 [nM]>
1.7

$$$$
>  <chemical_smiles>
CC(C)(C)[C@@H]1NC(=O)O[C@@H]2C[C@@H]3C[C@@H]3[C@H]2CCCCCc2nc3ccc(F)cc3nc2O[C@@H]2C[C@@H](C(=O)N[C@]3(C(=O)NS(=O)(=O)C4CC4)C[C@H]3C(F)F)N(C2)C1=O

>  <EC50 [nM]>
0.8

$$$$
>  <chemical_smiles>
COc1ccc2nc3c(nc2c1)O[C@@H]1C[C@@H](C(=O)N[C@]2(C(=O)NS(=O)(=O)C4CC4)C[C@H]2C(F)F)N(C1)C(=O)[C@H](C(C)(C)C)NC(=O)O[C@@H]1C[C@@H]2C[C@@H]2[C@H]1CCCCC3

>  <EC50 [nM]>
1

$$$$

====

Below, each entry is listed alongside its reported Ki.
Target: NS3 genotype 3a protease (UniProt Q81258)
Construct: Purified NS3 protease domain (amino acids 1-181) of the genotype 1b and 3a virus were generated as above; fused on or other part: N-terminal hexahistidine tag with an rTEV protease cleavage site (vector p28-N6H-Tev-NS3(181)3)
Assay: Ki determination, NS3 protease genotype 3a (fluorogenic depsipeptide substrate)
Settings: NS3 protease domain genotype 3a, NS4A peptide

>  <compound>
CC(C)(C)[C@@H]1NC(=O)O[C@@H]2C[C@@H]3C[C@@H]3[C@H]2CCCCC(F)(F)c2nc3cc(F)c(F)cc3nc2O[C@@H]2C[C@@H](C(=O)N[C@]3(C(=O)NS(=O)(=O)C4CC4)C[C@H]3C(F)F)N(C2)C1=O (racemic)

>  <Ki>
0.05 nM

$$$$
>  <compound>
COc1ccc2nc3c(nc2c1)O[C@@H]1C[C@@H](C(=O)N[C@]2(C(=O)NS(=O)(=O)C4(C)CC4)C[C@H]2C(F)F)N(C1)C(=O)[C@H](C(C)(C)C)NC(=O)O[C@H]1[C@H](CCCCC3)C[C@H]2C[C@H]21

>  <Ki>
8.5 nM

$$$$
>  <compound>
COc1ccc2nc3c(nc2c1)O[C@@H]1C[C@@H](C(=O)N[C@]2(C(=O)NS(=O)(=O)C4CC4)C[C@H]2C(F)F)N(C1)C(=O)[C@H](C(C)(C)C)NC(=O)O[C@H]1[C@@H]2CC[C@@H](C2)[C@@H]1CCCCC3

>  <Ki>
1.2 nM

$$$$
>  <compound>
COc1ccc2nc3c(nc2c1)O[C@@H]1C[C@@H](C(=O)N[C@]2(C(=O)NS(=O)(=O)C4CC4)C[C@H]2C(F)F)N(C1)C(=O)[C@H](C(C)(C)C)NC(=O)O[C@@H]1C[C@@H]2C[C@@H]2[C@H]1CCCCC3(F)F (racemic)

>  <Ki>
0.02 nM

$$$$
>  <compound>
COc1ccc2nc3c(nc2c1)O[C@@H]1C[C@@H](C(=O)N[C@]2(C(=O)NS(=O)(=O)C4CC4)C[C@H]2CC(F)F)N(C1)C(=O)[C@H](C(C)(C)C)NC(=O)O[C@@H]1C[C@@H]2C[C@@H]2[C@H]1CCCCC3

>  <Ki>
0.21 nM

$$$$
>  <compound>
CC(C)(C)[C@@H]1NC(=O)O[C@@H]2C[C@@H]3C[C@@H]3[C@H]2CCCCCc2nc3ccc(F)cc3nc2O[C@@H]2C[C@@H](C(=O)N[C@]3(C(=O)NS(=O)(=O)C4(C)CC4)C[C@H]3C(F)F)N(C2)C1=O

>  <Ki>
0.09 nM

$$$$
>  <compound>
COc1ccc2nc3c(nc2c1)O[C@@H]1C[C@@H](C(=O)N[C@]2(C(=O)NS(=O)(=O)C4(C)CC4)C[C@H]2CC(F)F)N(C1)C(=O)[C@H](C(C)(C)C)NC(=O)O[C@@H]1C[C@@H]2C[C@@H]2[C@H]1CCCCC3(F)F

>  <Ki>
0.07 nM

$$$$
>  <compound>
CC(C)(C)[C@@H]1NC(=O)O[C@@H]2C[C@@H]3C[C@@H]3[C@H]2CCCCCc2nc3ccc(Cl)cc3nc2O[C@@H]2C[C@@H](C(=O)N[C@]3(C(=O)NS(=O)(=O)C4CC4)C[C@H]3C(F)F)N(C2)C1=O

>  <Ki>
0.06 nM

$$$$
>  <compound>
COc1ccc2nc3c(nc2c1)O[C@@H]1C[C@@H](C(=O)N[C@]2(C(=O)NS(=O)(=O)C4(C)CC4)C[C@H]2C(F)F)N(C1)C(=O)[C@H](C(C)(C)C)NC(=O)O[C@@H]1C[C@@H]2C[C@@H]2[C@H]1CCCCC3(F)F

>  <Ki>
0.02 nM

$$$$
>  <compound>
CC(C)(C)[C@@H]1NC(=O)O[C@@H]2C[C@@H]3C[C@@H]3[C@H]2CCCCC(F)(F)c2nc3ccc(C#N)cc3nc2O[C@@H]2C[C@@H](C(=O)N[C@]3(C(=O)NS(=O)(=O)C4(C)CC4)C[C@H]3C(F)F)N(C2)C1=O

>  <Ki>
0.01 nM

$$$$
>  <compound>
CC(C)(C)[C@@H]1NC(=O)O[C@@H]2C[C@@H]3C[C@@H]3[C@H]2CCCCC(F)(F)c2nc3ccccc3nc2O[C@@H]2C[C@@H](C(=O)N[C@]3(C(=O)NS(=O)(=O)C4(C)CC4)C[C@H]3C(F)F)N(C2)C1=O

>  <Ki>
0.02 nM

$$$$
>  <compound>
COc1ccc2cc3c(nc2c1)O[C@@H]1C[C@@H](C(=O)N[C@]2(C(=O)NS(=O)(=O)C4CC4)C[C@H]2C(F)F)N(C1)C(=O)[C@H](C(C)(C)C)NC(=O)O[C@@H]1C[C@@H]2C[C@@H]2[C@H]1CCCCC3

>  <Ki>
0.1 nM

$$$$
>  <compound>
COc1ccc2nc3c(nc2c1)O[C@@H]1C[C@@H](C(=O)N[C@]2(C(=O)NS(=O)(=O)C4CC4)C[C@H]2C(F)F)N(C1)C(=O)[C@H](C(C)(C)C)NC(=O)O[C@H]1[C@H](CCCCC3)C[C@H]2C[C@H]21

>  <Ki>
9.5 nM

$$$$
>  <compound>
COc1ccc2nc3c(nc2c1)O[C@@H]1C[C@@H](C(=O)N[C@]2(C(=O)NS(=O)(=O)C4CC4)C[C@H]2C(F)F)N(C1)C(=O)[C@H](C(C)(C)C)NC(=O)O[C@@H]1C[C@@H]2C[C@@H]2[C@H]1CCCCC3

>  <Ki>
0.03 nM

$$$$
>  <compound>
CC(C)(C)[C@@H]1NC(=O)O[C@@H]2C[C@@H]3C[C@@H]3[C@H]2CC/C=C/C(F)(F)c2nc3ccc(C#N)cc3nc2O[C@@H]2C[C@@H](C(=O)N[C@]3(C(=O)NS(=O)(=O)C4(C)CC4)C[C@H]3C(F)F)N(C2)C1=O

>  <Ki>
0.03 nM

$$$$
>  <compound>
CC(C)(C)[C@@H]1NC(=O)O[C@@H]2C[C@@H]3C[C@@H]3[C@H]2CCCCC(F)(F)c2nc3ccc(OC(F)F)cc3nc2O[C@@H]2C[C@@H](C(=O)N[C@]3(C(=O)NS(=O)(=O)C4CC4)C[C@H]3C(F)F)N(C2)C1=O

>  <Ki>
0.13 nM

$$$$
